# System: NCI-H2228 cells (EML4-ALK fusion)
# assay_procedure: BrdU ELISA proliferation of NCI-H2228 cells
# Assay type: cell-based
# condition_parameters: Homo sapiens; NCI-H2228, 72 hr incubation, BrdU incorporation; read-out: 72 hr Prolif. IC50
pIC50: −log10 of the molar value.
endpoint: pIC50

Query :: // map COc1cc2nccc(Oc3ccc(NC(=O)C4(C(=O)Nc5ccc(F)cc5)CC4)cc3)c2cc1OC to recorded pIC50 (system: NCI-H2228 cells (EML4-ALK fusion))
Result :: 5.00 to 5.30
